Target: Voltage-dependent N-type calcium channel subunit alpha-1B (Homo sapiens)
Assay: inhibitors of Mint1-CaV2.2 protein interaction, biochemical, HTRF (AID 2073)
Conditions: at 20 µM, active compounds read high
Screen size: about 290,000 compounds; about 570 (0.2%) were called active. Inconclusive results (about 1%) are left out. This is one part of a sample in which actives are shown more often than they occur.
EXPERIMENTAL READOUT: inhibition (%)
The response must be a number in % with no trailing unit.

Some entries whose results are on file:
N#CC(C#N)=Cc1ccc(C=C(C#N)C#N)cc1	19.1
COc1cc2c(c(OC)c1)C(=O)OC(C)CCCC(=O)CCCCC2 (stereo not given)	7.1
O=[As](O)(O)c1ccc(N=Nc2ccc(O)cc2)cc1	15.6
CC(C)[C@@]1(NC(=O)[C@@H]2C=C3c4cccc5[nH]cc(c45)C[C@H]3N(C)C2)O[C@@]2(O)[C@@H]3CCCN3C(=O)[C@H](Cc3ccccc3)N2C1=O	66.3
C=Cn1ccnc1P(=S)(c1ccc(Cl)cc1)c1nccn1C=C	4.2

Ask | Reported inhibition for O=C1NC(=O)C(CCc2ccncc2)(CCc2ccccn2)C(=O)N1c1ccc(Br)cc1 (stereo not given) : what is it?
Reply | 16.2

Ask | Reported inhibition for `CCc1ccc(/C=C(/C#N)C(N)=S)cc1` : what is it?
Reply | 84.5

Ask | Reported inhibition for `CCOP(=O)(OCC)/C(C#N)=C/c1ccc(Br)cc1` : what is it?
Reply | 3.7

Ask | Reported inhibition for `COc1ccc(CC[n+]2cc(/N=C(\C)[O-])on2)cc1OC` : what is it?
Reply | 11.6

Ask | Reported inhibition for `O=C1C2(c3ccccc3)CN3CN(C2)CC1(c1ccccc1)C3` : what is it?
Reply | -5.2
